# System: HEp-2
# test-protocol: Minimum toxic effect against HEp-2 cells.
# Type: functional, Homo sapiens
measured-quantity: MTC (µg/mL)
Please respond with the number in µg/mL and leave the unit unwritten.

Exam item: Given the compound O=c1[nH]c(=O)n(C2CC(O)C(CCl)O2)cc1CCCCl (stereo not given) , what is its reported MTC?
Marked response: 330

Exam item: Moving on to Nc1nc2c(ncn2COCCO)c(=O)[nH]1 [ACYCLOVIR]
Marked response: 330

Exam item: Moving on to O=c1[nH]c(=O)n([C@H]2C[C@H](O)[C@@H](CO)O2)cc1I [IDOXURIDINE]
Marked response: 100

Exam item: Moving on to `O=c1nc2c(cn1[C@H]1C[C@H](O)[C@@H](CO)O1)CCO2`
Marked response: 330

Exam item: Moving on to `O=c1[nH]c(=O)n([C@@H]2C[C@H](O)[C@@H](CO)O2)cc1CCCl`
Marked response: 100

Exam item: Moving on to `O=c1[nH]c(=O)n([C@H]2C[C@H](O)[C@@H](CO)O2)cc1CCBr`
Marked response: 100

Exam item: Moving on to Nc1ncnc2c1ncn2[C@@H]1O[C@H](CO)[C@@H](O)[C@@H]1O [VIDARABINE]
Marked response: 100

Exam item: Moving on to `O=c1[nH]c(=O)n([C@H]2C[C@H](O)[C@@H](CO)O2)cc1CCCO`
Marked response: 330

Exam item: Moving on to `O=c1[nH]c(=O)n([C@H]2C[C@H](O)[C@@H](CO)O2)cc1CCCl`
Marked response: 330

Exam item: Moving on to O=c1[nH]c(=O)n([C@H]2C[C@H](O)[C@@H](CO)O2)cc1/C=C/Br [BRIVUDINE]
Marked response: 100

---

# Test system: Human alphaherpesvirus 2
# test-protocol: Minimum inhibitory concentration against HSV-2.
# Assay type: functional
measured-quantity: log10(MIC) (log10 of the value in µg/mL)
Log scale reminder: MIC in µg/mL, then log10 taken.

Exam item: Identify the measured log10(MIC) of O=c1[nH]c(=O)n([C@H]2C[C@H](O)[C@@H](CO)O2)cc1I [IDOXURIDINE] for Human alphaherpesvirus 2.
Marked response: -0.52

Exam item: Moving on to O=c1[nH]c(=O)n(C2CC(O)C(CBr)O2)cc1CCBr (stereo not given)
Marked response: 2.00

Exam item: Moving on to `O=c1[nH]c(=O)n([C@H]2C[C@H](O)[C@@H](CO)O2)cc1CCI`
Marked response: 1.48

Exam item: Moving on to Nc1ncnc2c1ncn2[C@@H]1O[C@H](CO)[C@@H](O)[C@@H]1O [VIDARABINE]
Marked response: 1.00

Exam item: Moving on to `O=c1[nH]c(=O)n([C@H]2C[C@H](O)[C@@H](CO)O2)cc1CCCCl`
Marked response: 1.48

Exam item: Moving on to `O=c1[nH]c(=O)n([C@H]2C[C@H](O)[C@@H](CO)O2)cc1CCCl`
Marked response: 0.48

Exam item: Moving on to `COC(=O)/C=C/c1cn([C@H]2C[C@H](O)[C@@H](CO)O2)c(=O)[nH]c1=O`
Marked response: 1.48

---

# Test system: Human alphaherpesvirus 2
# test-protocol: Minimum inhibitory concentration against HSV-2.
# Assay type: functional
measured-quantity: MIC (µg/mL)
Please respond with the number in µg/mL and leave the unit unwritten.

Exam item: Given the compound `O=c1[nH]c(=O)n([C@@H]2C[C@H](O)[C@@H](CO)O2)cc1CCCl` , what is its reported MIC?
Marked response: 100

Exam item: Moving on to `O=c1[nH]c(=O)n([C@H]2C[C@H](O)[C@@H](CO)O2)cc1CCBr`
Marked response: 100

Exam item: Moving on to O=C([O-])P(=O)([O-])[O-].[Na+].[Na+].[Na+] [FOSCARNET SODIUM]
Marked response: 30

Exam item: Moving on to `O=c1[nH]c(=O)n([C@H]2C[C@H](O)[C@@H](CO)O2)cc1CCO`
Marked response: 100

Exam item: Moving on to Nc1nc2c(ncn2COCCO)c(=O)[nH]1 [ACYCLOVIR]
Marked response: 3

Exam item: Moving on to O=c1[nH]c(=O)n([C@H]2C[C@H](O)[C@@H](CO)O2)cc1/C=C/Br [BRIVUDINE]
Marked response: 3
